- Assay system: N-type calcium channel (α1B (Cav2.2), β3 and α2δ subunits) (Homo sapiens)
- Sequence (Q00975 whole entry): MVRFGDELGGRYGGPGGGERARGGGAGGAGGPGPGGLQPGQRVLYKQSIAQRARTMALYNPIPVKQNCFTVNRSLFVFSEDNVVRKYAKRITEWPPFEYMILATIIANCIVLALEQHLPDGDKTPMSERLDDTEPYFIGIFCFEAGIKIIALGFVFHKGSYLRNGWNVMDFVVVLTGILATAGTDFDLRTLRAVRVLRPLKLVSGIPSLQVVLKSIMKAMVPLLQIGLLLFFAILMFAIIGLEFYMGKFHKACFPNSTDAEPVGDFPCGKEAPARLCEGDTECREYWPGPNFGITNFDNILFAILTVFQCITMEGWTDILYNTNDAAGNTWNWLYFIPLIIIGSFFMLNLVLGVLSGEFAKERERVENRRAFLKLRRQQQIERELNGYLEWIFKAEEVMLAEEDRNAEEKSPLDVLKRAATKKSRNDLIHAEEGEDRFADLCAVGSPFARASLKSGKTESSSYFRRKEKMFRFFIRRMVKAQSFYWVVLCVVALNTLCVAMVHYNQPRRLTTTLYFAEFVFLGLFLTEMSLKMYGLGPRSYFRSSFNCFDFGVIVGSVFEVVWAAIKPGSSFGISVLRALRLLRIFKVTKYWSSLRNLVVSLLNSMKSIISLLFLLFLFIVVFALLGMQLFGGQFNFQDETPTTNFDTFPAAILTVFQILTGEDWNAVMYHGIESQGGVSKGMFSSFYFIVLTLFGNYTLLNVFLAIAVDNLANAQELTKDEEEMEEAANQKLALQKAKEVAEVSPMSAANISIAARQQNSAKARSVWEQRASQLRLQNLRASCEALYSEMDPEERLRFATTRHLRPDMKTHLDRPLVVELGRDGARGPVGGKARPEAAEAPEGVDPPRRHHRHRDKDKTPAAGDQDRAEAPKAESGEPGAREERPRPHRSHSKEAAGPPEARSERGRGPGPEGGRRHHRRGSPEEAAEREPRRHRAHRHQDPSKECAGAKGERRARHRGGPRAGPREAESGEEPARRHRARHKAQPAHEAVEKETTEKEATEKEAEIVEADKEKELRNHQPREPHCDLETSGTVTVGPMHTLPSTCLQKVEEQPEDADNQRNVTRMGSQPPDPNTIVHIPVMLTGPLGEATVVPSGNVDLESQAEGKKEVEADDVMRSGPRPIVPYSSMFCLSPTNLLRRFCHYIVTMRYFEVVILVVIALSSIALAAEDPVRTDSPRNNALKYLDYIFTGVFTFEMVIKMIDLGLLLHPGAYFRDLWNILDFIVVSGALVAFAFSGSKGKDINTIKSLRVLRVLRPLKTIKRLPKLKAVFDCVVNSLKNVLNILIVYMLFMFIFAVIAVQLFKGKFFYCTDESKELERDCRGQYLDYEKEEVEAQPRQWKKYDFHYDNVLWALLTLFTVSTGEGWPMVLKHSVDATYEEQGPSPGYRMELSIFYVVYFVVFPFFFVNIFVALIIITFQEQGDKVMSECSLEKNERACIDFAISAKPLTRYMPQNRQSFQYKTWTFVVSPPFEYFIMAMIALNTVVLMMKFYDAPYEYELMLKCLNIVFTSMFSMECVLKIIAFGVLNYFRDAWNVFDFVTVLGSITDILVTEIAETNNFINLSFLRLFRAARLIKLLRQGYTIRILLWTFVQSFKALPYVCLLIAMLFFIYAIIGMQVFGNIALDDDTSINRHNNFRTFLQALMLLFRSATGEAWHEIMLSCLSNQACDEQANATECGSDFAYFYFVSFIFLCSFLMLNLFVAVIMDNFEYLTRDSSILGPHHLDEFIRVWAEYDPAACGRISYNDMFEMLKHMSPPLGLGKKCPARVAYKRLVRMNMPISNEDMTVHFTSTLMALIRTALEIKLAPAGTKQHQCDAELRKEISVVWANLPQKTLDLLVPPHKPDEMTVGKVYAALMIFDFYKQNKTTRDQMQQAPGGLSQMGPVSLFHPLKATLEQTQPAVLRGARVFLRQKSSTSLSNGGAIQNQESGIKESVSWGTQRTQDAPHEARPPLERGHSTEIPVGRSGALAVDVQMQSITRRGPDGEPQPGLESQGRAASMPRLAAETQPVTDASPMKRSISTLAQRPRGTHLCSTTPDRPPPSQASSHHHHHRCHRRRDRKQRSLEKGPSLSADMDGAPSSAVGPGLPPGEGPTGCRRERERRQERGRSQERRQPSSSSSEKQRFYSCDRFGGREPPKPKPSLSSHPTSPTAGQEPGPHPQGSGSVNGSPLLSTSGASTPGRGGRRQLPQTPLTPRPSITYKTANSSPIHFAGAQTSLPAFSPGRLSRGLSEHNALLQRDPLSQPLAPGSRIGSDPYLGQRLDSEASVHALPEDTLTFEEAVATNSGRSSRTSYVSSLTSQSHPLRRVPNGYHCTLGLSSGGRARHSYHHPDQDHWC
- Sequence (P54284 whole entry partner): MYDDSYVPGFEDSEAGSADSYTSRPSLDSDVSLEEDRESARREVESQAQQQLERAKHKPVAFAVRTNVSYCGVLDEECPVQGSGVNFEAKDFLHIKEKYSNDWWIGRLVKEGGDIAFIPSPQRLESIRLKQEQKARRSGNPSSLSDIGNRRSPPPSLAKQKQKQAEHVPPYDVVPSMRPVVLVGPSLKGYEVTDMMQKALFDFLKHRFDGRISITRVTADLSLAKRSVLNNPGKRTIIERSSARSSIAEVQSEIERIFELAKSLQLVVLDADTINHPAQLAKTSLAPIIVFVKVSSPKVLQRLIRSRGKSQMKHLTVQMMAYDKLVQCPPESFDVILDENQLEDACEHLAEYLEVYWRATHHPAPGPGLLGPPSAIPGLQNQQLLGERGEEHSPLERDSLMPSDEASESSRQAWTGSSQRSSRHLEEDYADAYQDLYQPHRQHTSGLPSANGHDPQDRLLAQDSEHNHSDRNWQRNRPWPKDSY
- Sequence (P54289 25-946 partner limits assumed): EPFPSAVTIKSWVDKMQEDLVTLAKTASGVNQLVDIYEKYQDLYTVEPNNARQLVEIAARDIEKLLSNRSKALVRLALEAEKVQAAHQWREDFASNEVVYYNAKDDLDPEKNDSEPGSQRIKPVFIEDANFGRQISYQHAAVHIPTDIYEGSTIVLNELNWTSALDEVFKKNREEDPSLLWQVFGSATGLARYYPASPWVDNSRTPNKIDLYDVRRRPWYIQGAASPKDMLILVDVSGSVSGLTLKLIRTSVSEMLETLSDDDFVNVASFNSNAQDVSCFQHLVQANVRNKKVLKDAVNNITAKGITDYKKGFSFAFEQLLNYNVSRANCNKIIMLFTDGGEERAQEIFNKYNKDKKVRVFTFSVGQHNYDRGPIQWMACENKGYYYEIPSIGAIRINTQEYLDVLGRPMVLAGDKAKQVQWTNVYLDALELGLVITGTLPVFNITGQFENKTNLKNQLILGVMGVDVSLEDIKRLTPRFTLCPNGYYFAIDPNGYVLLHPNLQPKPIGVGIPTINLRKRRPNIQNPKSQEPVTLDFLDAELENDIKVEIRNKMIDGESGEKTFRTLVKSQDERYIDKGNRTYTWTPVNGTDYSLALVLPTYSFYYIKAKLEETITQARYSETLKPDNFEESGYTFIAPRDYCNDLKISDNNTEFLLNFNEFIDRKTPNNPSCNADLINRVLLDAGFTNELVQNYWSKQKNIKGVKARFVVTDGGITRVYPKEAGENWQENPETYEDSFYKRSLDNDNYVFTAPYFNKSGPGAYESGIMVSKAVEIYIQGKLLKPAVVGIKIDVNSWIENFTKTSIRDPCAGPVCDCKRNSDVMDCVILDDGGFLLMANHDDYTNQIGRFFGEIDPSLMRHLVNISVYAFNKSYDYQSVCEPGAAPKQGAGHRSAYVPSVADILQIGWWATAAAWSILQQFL
- Sequence (P54289 947-1103 partner limits assumed): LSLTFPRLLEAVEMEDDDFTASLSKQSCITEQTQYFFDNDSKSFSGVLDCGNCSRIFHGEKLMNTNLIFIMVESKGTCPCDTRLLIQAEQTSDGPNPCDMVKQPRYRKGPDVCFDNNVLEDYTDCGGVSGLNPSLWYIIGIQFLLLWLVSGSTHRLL
- Protocol summary: Functional Assay: Antagonism of N-Type Calcium Channel (FDSS calcium mobilization, KCl depolarization)
- Format: cell-based
- Condition notes: HEK cell line, 50 mM KCl depolarization, six-point concentration-response; read-out: FDSS IC50
- Experimental: A stable cell line (HEK parent) co-expressing the α1B (Cav2.2), β3 and α2δ subunits of the N-type calcium channel subunits was used. […] Calcium mobilization responses to KCl depolarization were evaluated by measuring the intensity of calcium-mediated fluorescent signal in the presence of BD Calcium Assay Dye (BD Biosciences, Franklin Lakes, N.J., U.S.A.), utilizing a Functional Drug Screening System (FDSS) by Hamamatsu Corporation (Bridgewater, N.J. U.S.A.). […]
pIC50: −log10 of the molar value.
Quantity measured: pIC50

1 = COc1ccccc1-n1nc2c(c1-c1ccc(Cl)cc1)CC(c1ccc(C)nc1)C2 (stereo not shown)
2 = COc1ccccc1-n1nc2c(c1-c1ccc(C#N)cc1)C[C@H](n1cc(C3CCCC3)nn1)C2
3 = COc1ccccc1-n1nc2c(c1-c1ccc(C#N)cc1)CC1(C2)OC(C)(C)C(C)(C)O1
Exercise: Hi! Can you put these in order of pIC50, lowest number first? Output the labels ranked as instructed.
Solution: 1, 2, 3
(1: 7.07, 2: 7.37, 3: 8.43)

a = COc1ccccc1-n1nc2c(c1-c1ccc(Cl)cc1)CC(c1ccc(C3CC3)nc1)C2 (stereo not shown)
b = COc1ccccc1-n1nc2c(c1-c1ccc(Cl)cc1)CC1(C2)O[C@@H](C)[C@@H](C)O1 (stereo partly shown) [Compound 102]
c = CCc1ccccc1-n1nc2c(c1-c1ccc(Cl)cc1)CC(/C=N\C(=O)OC(C)(C)C)C2 (racemic)
Exercise: Sort these molecules on pIC50 so the largest reading comes first. Return the labels ranked in the requested order, please.
Solution: b, a, c
(b: 8.12, a: 7.21, c: 6.52)

a = COc1ccccc1-n1nc2c(c1-c1ccc(Cl)cc1)CC(CNS(C)(=O)=O)C2 (stereo not shown)
b = COc1ccccc1-n1nc2c(c1-c1ccc(Cl)cc1)CC1(C2)OCC(C)(C)CO1
Exercise: Between the entries labeled a and b , whose measured pIC50 is lower? Pick one; state its label.
Solution: a
(a: 7.26, b: 7.89)

P = COc1ccccc1-n1nc2c(c1-c1ccc(OC(C)C)nc1)C[C@@H](N(C)S(=O)(=O)N(C)C)C2
Q = CCOc1ccccc1-n1nc2c(c1-c1ccc(Cl)cc1)C[C@@H](n1ccnc1)C2
Exercise: Hi there, can you help? I need to know whether P or Q has lower measured pIC50. Indicate your choice by writing its label.
Solution: Q

Value source: patent US8853418B2
